Listed binders paired with reported Maximum mean fluorescence intensity
experimentalSystem: T1, human CD22, endogenous on Raji cells (human, UniProt P20273 20-847)
T1 construct: whole, on cells; Endogenous protein of the Raji cell line
T1 sequence (looked up): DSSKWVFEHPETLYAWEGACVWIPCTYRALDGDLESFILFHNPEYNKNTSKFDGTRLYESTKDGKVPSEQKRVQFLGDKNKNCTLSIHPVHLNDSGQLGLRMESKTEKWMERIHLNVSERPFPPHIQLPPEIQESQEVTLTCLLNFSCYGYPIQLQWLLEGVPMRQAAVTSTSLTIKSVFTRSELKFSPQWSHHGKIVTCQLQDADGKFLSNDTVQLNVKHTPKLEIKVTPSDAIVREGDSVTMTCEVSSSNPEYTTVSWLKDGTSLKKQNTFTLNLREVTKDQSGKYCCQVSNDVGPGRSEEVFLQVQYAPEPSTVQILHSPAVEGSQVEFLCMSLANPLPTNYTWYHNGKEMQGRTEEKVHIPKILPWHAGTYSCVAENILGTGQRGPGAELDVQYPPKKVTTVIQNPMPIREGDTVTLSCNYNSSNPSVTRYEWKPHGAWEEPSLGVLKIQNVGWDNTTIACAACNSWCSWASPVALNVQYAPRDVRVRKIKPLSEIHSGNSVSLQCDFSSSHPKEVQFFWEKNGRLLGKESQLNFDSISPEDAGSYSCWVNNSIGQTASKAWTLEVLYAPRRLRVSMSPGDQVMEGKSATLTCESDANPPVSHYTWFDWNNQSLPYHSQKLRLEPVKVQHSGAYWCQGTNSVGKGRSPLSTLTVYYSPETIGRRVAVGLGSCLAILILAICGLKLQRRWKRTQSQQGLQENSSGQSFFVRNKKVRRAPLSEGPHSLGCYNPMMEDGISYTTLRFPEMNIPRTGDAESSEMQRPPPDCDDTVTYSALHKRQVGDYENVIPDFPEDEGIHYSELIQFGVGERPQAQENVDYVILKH
protocol: FACS, Raji cells
Reply with just the number (in MFI).

// known answers, use as guide
Entry under test: F2.55.1 human-murine chimeric antibody (antibody, human IgG1, lambda, V domains shown, Chimeric, human IgG1 / lambda; VL tied by name) VH: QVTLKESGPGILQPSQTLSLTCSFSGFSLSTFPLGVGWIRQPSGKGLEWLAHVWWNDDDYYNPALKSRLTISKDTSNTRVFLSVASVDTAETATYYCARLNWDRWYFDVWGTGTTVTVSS VL: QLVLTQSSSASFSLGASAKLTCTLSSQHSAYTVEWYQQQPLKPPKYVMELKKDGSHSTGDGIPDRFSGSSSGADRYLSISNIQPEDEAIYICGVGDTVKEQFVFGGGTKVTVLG . Its Maximum mean fluorescence intensity was 18600

Entry under test: F2.104.10 human-murine chimeric antibody (antibody, human IgG1, lambda, V domains shown, Chimeric, human IgG1 / lambda) VH: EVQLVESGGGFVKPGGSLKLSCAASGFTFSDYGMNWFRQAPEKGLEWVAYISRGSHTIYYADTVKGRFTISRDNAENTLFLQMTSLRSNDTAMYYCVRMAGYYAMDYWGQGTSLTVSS VL: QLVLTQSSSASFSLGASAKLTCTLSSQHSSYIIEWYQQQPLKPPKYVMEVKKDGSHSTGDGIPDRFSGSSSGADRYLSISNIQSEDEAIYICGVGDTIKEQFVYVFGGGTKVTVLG . Its Maximum mean fluorescence intensity was 16300

Continuing:
Entry under test: F2.42.9 human-murine chimeric antibody (antibody, human IgG1, lambda, V domains shown, Chimeric, human IgG1 / lambda; VL tied by name) VH: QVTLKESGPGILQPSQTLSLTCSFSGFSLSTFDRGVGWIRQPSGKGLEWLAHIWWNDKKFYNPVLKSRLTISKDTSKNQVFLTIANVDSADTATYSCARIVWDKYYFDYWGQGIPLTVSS VL: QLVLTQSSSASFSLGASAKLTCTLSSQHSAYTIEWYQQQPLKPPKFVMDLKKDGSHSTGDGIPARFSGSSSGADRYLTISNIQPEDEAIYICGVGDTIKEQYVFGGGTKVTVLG . Its Maximum mean fluorescence intensity was 16700
